# Assayed System: full-length beta-Catenin (Uniprot ID P35222) (Homo sapiens, UniProt P35222)
# Construct: 10 nM full-length beta-Catenin (Uniprot ID P35222)
# Sequence (P35222 whole entry): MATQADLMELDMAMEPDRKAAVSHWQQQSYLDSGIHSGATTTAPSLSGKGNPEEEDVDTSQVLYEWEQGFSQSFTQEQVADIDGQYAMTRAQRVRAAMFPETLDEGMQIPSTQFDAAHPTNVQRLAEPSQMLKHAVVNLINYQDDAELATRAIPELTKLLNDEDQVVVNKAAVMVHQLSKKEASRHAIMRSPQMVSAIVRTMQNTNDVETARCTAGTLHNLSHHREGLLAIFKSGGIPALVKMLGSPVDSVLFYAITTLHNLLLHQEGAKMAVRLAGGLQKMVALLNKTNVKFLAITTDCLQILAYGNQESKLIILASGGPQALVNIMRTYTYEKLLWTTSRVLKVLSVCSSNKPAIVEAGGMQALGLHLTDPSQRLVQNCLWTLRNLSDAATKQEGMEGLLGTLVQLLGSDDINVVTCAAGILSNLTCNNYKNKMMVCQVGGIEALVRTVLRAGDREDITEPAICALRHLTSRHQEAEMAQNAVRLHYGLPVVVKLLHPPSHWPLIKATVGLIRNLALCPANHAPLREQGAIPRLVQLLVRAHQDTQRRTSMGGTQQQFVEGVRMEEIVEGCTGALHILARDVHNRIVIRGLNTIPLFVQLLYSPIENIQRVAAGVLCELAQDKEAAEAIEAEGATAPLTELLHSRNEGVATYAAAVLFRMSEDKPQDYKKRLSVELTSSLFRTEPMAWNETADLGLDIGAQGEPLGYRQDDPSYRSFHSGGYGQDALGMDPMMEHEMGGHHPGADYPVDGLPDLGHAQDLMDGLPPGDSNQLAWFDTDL
# Test Summary: Fluorescence polarization IC50 (beta-catenin / 5FAM-TCF4 10-53 competition)
# Format: binding
# Details: fluorescence polarization; read-out: beta-Catenin FP IC50
Could you please report measured pIC50 for the items listed next?
Answers are plain numbers, as −log10 of the molar value.

Test item CC(=O)N1CCC[C@]12CC=CCCCC1(CCCC=CCCCOC(=O)N3CC[C@@](C(=O)N[C@@H](Cc4ccsc4)C(=O)N[C@@H](Cc4ccc(F)c(F)c4)C(=O)N[C@@H](CO)C(N)=O)(C3)NC(=O)[C@H](CC(C)C)NC(=O)[C@H](Cc3ccccc3)NC(=O)[C@H](C)NC(=O)[C@H](C)NC(=O)[C@H](CC(=O)O)NC(=O)[C@H](CC(=O)O)NC1=O)NC(=O)[C@H](CC(C)(C)C)NC(=O)[C@H](CC(=O)O)NC2=O (some centres unmarked) ; full-length beta-Catenin (Uniprot ID P35222) (Homo sapiens, UniProt P35222); reported pIC50 was 7.39

Look at each molecule and report its pIC50.
1. CC(=O)N1CCC[C@]12CC=CCCCC1(CCCC=CCCCOC(=O)N3CC[C@@](C(=O)N[C@@H](Cc4ccccc4)C(=O)N[C@@H](Cc4csc5ccccc45)C(=O)N[C@@H](CCC(N)=O)C(N)=O)(C3)NC(=O)[C@H](CC(N)=O)NC(=O)[C@H](Cc3ccccc3)NC(=O)[C@H](C)NC(=O)[C@H](C)NC(=O)[C@H](CCC(=O)O)NC(=O)[C@H](CC(=O)O)NC1=O)NC(=O)[C@H](CC(C)(C)C)NC(=O)[C@H](CC(=O)O)NC2=O (some centres unmarked) [I-685]
2. CC[C@H](C)[C@@H]1NC(=O)[C@H](CC(=O)O)NC(=O)[C@]2(CC=CCCCC3(CCCC=CCCCCCC[C@@](C)(C(=O)N[C@@H](Cc4ccccc4)C(=O)N[C@@H](Cc4csc5ccccc45)C(=O)N[C@@H](CO)C(N)=O)NC(=O)[C@H](CCC(N)=O)NC(=O)[C@H](Cc4ccccc4)NC(=O)[C@H](C)NC(=O)[C@H](C)NC(=O)[C@H](CCC(=O)O)NC(=O)[C@H](CC(=O)O)NC3=O)NC1=O)CCCN2C(C)=O (some centres unmarked) [I-640]
3. CC(=O)N1CCC[C@]12CC=CCCCC1(CCCC=CCCCOC(=O)N3CC[C@@](C(=O)N[C@@H](Cc4ccsc4)C(=O)N[C@@H](Cc4csc5ccccc45)C(=O)N[C@@H](CCC(N)=O)C(N)=O)(C3)NC(=O)[C@H](CC(C)C)NC(=O)[C@H](Cc3ccccc3)NC(=O)[C@H](C)NC(=O)[C@H](C)NC(=O)[C@H](CCN(CC(=O)O)Cc3c(F)c(F)c(F)c(F)c3F)NC(=O)[C@H](CC(=O)O)NC1=O)NC(=O)[C@H](CC(C)(C)C)NC(=O)[C@H](CC(=O)O)NC2=O (some centres unmarked)
4. C[C@@H]1NC(=O)[C@H](C)NC(=O)[C@H](CC(=O)O)NC(=O)[C@H](CC(=O)O)NC(=O)C2(CCCC=CCCCOC(=O)N3CC[C@@](C(=O)N[C@@H](Cc4ccccc4)C(=O)N[C@@H](Cc4csc5ccccc45)C(=O)N[C@@H](CO)C(N)=O)(C3)NC(=O)[C@H](CO)NC(=O)[C@H](Cc3ccccc3)NC1=O)CCCC=CC[C@]1(CCCN1C(=O)CCCN(C)C)C(=O)N[C@@H](CC(=O)O)C(=O)N[C@@H](CC(C)(C)C)C(=O)N2 (some centres unmarked)

1. 7.60
2. 7.06
3. 7.07
4. 7.32
